Hello, the source for this data is paper PMC4367269, in case you need it.

Examples of proteins with documented kcat/Km follow.
# Substrate: O=c1ccn([C@@H]2O[C@H](COP(=O)(O)OP(=O)(O)O[C@H]3O[C@H](CO)[C@H](O)[C@H](O)[C@H]3O)[C@@H](O)[C@H]2O)c(=O)[nH]1
# TEST DETAILS: galactosyltransferase assay, HPLC-UV
# Assay type: biochemical, Homo sapiens
# STATED CONDITIONS: apparent, fixed 5 mM 4-MUX, 10 mM MnCl2, 100 mM sodium cacodylate pH 7.0, 37 °C
Remember to follow the number with its unit.

>>> result("hβ4GalT7 (GST-β4GalT7) (Homo sapiens; R270K) (protein, truncated soluble form lacking the first 60 N-terminal amino acids (transmembrane domain and part of stem), GST fusion (tag kept), pET-41a(+), E. coli BL21(DE3), glutathione-Sepharose purified) VRGQGQETSGPPRACPPEPPPEHWEEDASWGPHRLAVLVPFRERFEELLVFVPHMRRFLSRKKIRHHIYVLNQVDHFRFNRAALINVGFLESSNSTDYIAMHDVDLLPLNEELDYGFPEAGPFHVASPELHPLYHYKTYVGGILLLSKQHYRLCNGMSNRFWGWGREDDEFYRRIKGAGLQLFRPSGITTGYKTFRHLHDPAWRKRDQKKIAAQKQEQFKVDREGGLNTVKYHVASRTALSVGGAPCTVLNIMLDCDKTATPWCTFS")
"2320 M⁻¹ s⁻¹"

Shifting focus to the protein that follows.
For record hβ4GalT7 (GST-β4GalT7) (Homo sapiens; R226A) (protein, truncated soluble form lacking the first 60 N-terminal amino acids (transmembrane domain and part of stem), GST fusion (tag kept), pET-41a(+), E. coli BL21(DE3), glutathione-Sepharose purified) VRGQGQETSGPPRACPPEPPPEHWEEDASWGPHRLAVLVPFRERFEELLVFVPHMRRFLSRKKIRHHIYVLNQVDHFRFNRAALINVGFLESSNSTDYIAMHDVDLLPLNEELDYGFPEAGPFHVASPELHPLYHYKTYVGGILLLSKQHYRLCNGMSNRFWGWGAEDDEFYRRIKGAGLQLFRPSGITTGYKTFRHLHDPAWRKRDQKRIAAQKQEQFKVDREGGLNTVKYHVASRTALSVGGAPCTVLNIMLDCDKTATPWCTFS the listed kcat/Km is 2850 M⁻¹ s⁻¹
